target: ABL1 (T315I) (Homo sapiens, UniProt P00519, T315I); experiment: Luminescence-based ABL kinase assay (300 μM ATP), ADP-Glo; format: biochemical
property label: log10(IC50) (log10 of the value in nM)
Note: values are log10 of IC50 expressed in nM.

## Task Query: log10(IC50); subject: COc1ccccc1-c1c(C)c2cnc(NC(=O)[C@@H]3C[C@@H]3F)cc2n1C
## Result 0.63

## Task Check COc1ncccc1-c1c(C)c2cnc(NC(=O)[C@@H]3C[C@@H]3F)cc2n1C too.
## Result 2.15

## Task Field entry: CNc1nc(OC)c(-c2cc3cc(NC(=O)[C@@H]4C[C@@H]4F)ncc3n2C)c(OC)n1
## Result 1.90

## Task Cool, now COc1ncc(F)cc1-c1cc2cc(NC(=O)[C@@H]3C[C@@H]3F)ncc2n1C
## Result 1.74

## Task What would you report for COc1ncc(Cl)cc1-c1cc2cc(NC(=O)[C@@H]3C[C@@H]3F)ncc2n1C ?
## Result 1.83

## Task Further, for COc1cc2scnc2cc1-c1cc2cc(NC(=O)[C@@H]3C[C@@H]3F)ncc2n1C ?
## Result 2.50

## Task Moving on to the next compound: Cc1c(O)cccc1-c1cc2cc(NC(=O)[C@@H]3C[C@@H]3F)ncc2n1C
## Result 0.92

## Task Same for COc1cccc(OC)c1-c1cc2cc(NC(=O)[C@@H]3C[C@@H]3F)ncc2n1C
## Result 0.25

====

target: ABL1 (T315I) (Homo sapiens, UniProt P00519, T315I); assay: Luminescence-based ABL kinase assay (300 μM ATP), ADP-Glo; assay type: biochemical
property label: IC50 (nM)
Give your result in nM as a bare value.

## Task Sample COc1ccccc1-c1cc2cc(NC(=O)[C@H]3C[C@H]3CN3CCOCC3)ncc2n1C (relative stereo) — what was its IC50?
## Result 212

## Task Same read-out for COc1nccc(C)c1-c1cc2cc(NC(=O)[C@@H]3C[C@@H]3F)ncc2n1C ?
## Result 40.7

## Task Now the compound COc1ccccc1-c1c(C)c2cnc(NC(=O)[C@H]3C[C@H]3F)cc2n1C
## Result 8.3

## Task Same question for COc1cccc(C)c1-c1cc2cc(NC(=O)C3CC3)ncc2n1C please.
## Result 38.6

====

Recorded IC50, one value per entry.
system: HL60 cells; assay: HL60 cell proliferation assay (CellTiter-Glo); format: cell-based; conditions: Homo sapiens, HL-60, HL60 cell viability, 72 hours, read-out: Cell Line (IC50, nM) HL60
Provide only the numeric value, understood in nM.

# molecule, IC50 (nM)
rows = [
    ("COc1nccc(F)c1-c1cc2cc(NC(=O)[C@@H]3C[C@@H]3F)ncc2n1C", 2110),
    ("COc1ccccc1-c1cc2cc(NC(=O)[C@H]3C[C@H]3CO)ncc2n1C (relative stereo)", 1690),
    ("Cc1c(O)cccc1-c1cc2cc(NC(=O)C3CC3)ncc2n1C", 60.9),
    ("COc1ccccc1-c1cc2cc(NC(=O)C3CC3)ncc2n1C", 202),
]

## Task Fill in: IC50 of COc1ncc(F)cc1-c1cc2cc(NC(=O)[C@@H]3C[C@@H]3F)ncc2n1C is ___
## Result 6240

## Task Can you handle COc1ccnc(OC)c1-c1cc2cc(NC(=O)[C@H]3C[C@@H]3CN(C)C)ncc2n1C (single isomer, unassigned) next?
## Result 1770

## Task Quick one: COc1ccccc1-c1[nH]c2cc(NC(=O)[C@@H]3C[C@@H]3F)ncc2c1C
## Result 808

## Task Cool, now [2H]C([2H])([2H])Oc1ncccc1-c1cc2cc(NC(=O)[C@@H]3C[C@@H]3F)ncc2n1C
## Result 5120

## Task Here is the next molecule: COc1nc(N)nc(OC)c1-c1cc2cc(NC(=O)[C@@H]3C[C@@H]3F)ncc2n1C
## Result 385

## Task Record: COc1ncc(F)cc1-c1c(C)c2cc(NC(=O)[C@@H]3C[C@@H]3F)ncc2n1C
## Result 6490

====

Target: ABL1 (Homo sapiens, UniProt P00519)
Construct: purchased Carna Biosciences
Experiment: Luminescence-based ABL kinase assay (300 μM ATP), ADP-Glo
Type: biochemical
Description: Compounds were serially diluted in DMSO. […] Luminescence signal positively correlates with kinase activity.
Threshold check on IC50: strictly below 90 nM is rule met; on or above 90 nM is rule not met.

## Task Determine whether this molecule shows IC50 lower than 90 nM (ties excluded): COc1cc2ncsc2cc1-c1cc2cc(NC(=O)[C@@H]3C[C@@H]3F)ncc2n1C
## Result rule met

## Task Follow-up item: COc1ncccc1-c1c(C)c2cnc(NC(=O)[C@@H]3C[C@@H]3F)cc2n1C
## Result rule not met

## Task // next record COc1c(-c2cc3cc(NC(=O)[C@@H]4C[C@@H]4F)ncc3n2C)ccc2cn[nH]c12
## Result rule not met

## Task Repeat for the following molecule: COc1cccc(F)c1-c1c(C)c2cc(NC(=O)[C@H]3C[C@H]3F)ncc2n1C
## Result rule not met

## Task What do we get for CCc1ncnc(OC)c1-c1cc2cc(NC(=O)[C@@H]3C[C@@H]3F)ncc2n1C ?
## Result rule not met

## Task Note, next up: COc1ccccc1-c1cc2cc(NC(=O)[C@H]3C[C@@H]3CN(C)C)ncc2n1C (single isomer, unassigned)
## Result rule met

## Task Continue with Cc1cc2[nH]ccc2cc1-c1cc2cc(NC(=O)C3CC3)ncc2n1C
## Result rule met

## Task Check COc1nc(O)nc(OC)c1-c1cc2cc(NC(=O)[C@@H]3C[C@@H]3F)ncc2n1C too.
## Result rule met

## Task And COc1nc(C(F)F)nc(OC)c1-c1cc2cc(NC(=O)[C@@H]3C[C@@H]3F)ncc2n1C ?
## Result rule met

## Task Follow-up entry: COc1ncccc1-c1cc2cc(NC(=O)[C@@H]3C[C@@H]3F)ncc2n1C
## Result rule met

## Task Now consider COc1cccc(OC)c1-c1cc2cc(NC(=O)NCCN3CCNCC3)ncc2n1C .
## Result rule met

## Task Then what about the molecule COc1ncc(F)c(OC)c1-c1cc2cc(NC(=O)NCCN3CCNCC3)ncc2n1C ?
## Result rule met

## Task And COc1nccc(OC2CC2)c1-c1cc2cc(NC(=O)[C@@H]3C[C@@H]3F)ncc2n1C ?
## Result rule met

## Task Can you handle COc1ncnc(OC2CC2)c1-c1cc2cc(NC(=O)[C@@H]3C[C@@H]3F)ncc2n1C next?
## Result rule met

## Task Next up: COc1ccc(F)cc1-c1cc2cc(NC(=O)[C@@H]3C[C@@H]3F)ncc2n1C
## Result rule met

====

test system: K562 cells; experiment: K562 cell proliferation assay (CellTiter-Glo); format: cell-based; details: Homo sapiens, K562 cell viability, 72 hours, read-out: Cell Line (IC50, nM) K562
property label: IC50 (nM)
Give your result in nM as a bare value.

# count of solved cases: 3
# molecule, number
measured = [
    ("COc1ncccc1-c1cc2cc(NC(=O)C3CC3)ncc2n1C [Compound 22]", 179),
    ("COc1ncnc(OC)c1-c1cc2cc(NC(=O)[C@H]3C[C@@H]3CN3CCN(C)CC3)ncc2n1C (single isomer, unassigned) [Compound 124]", 41.4),
    ("Cc1c(O)cccc1-c1cc2cc(NC(=O)[C@@H]3C[C@@H]3F)ncc2n1C [Compound 24]", 122),
]

Shift focus to the following entry.
## Task Any idea what IC50 was measured for COc1cc(C)nc(OC)c1-c1cc2cc(NC(=O)[C@@H]3C[C@@H]3F)ncc2n1C [Compound 98] ?
## Result 63

====

test system: K562 cells; assay: K562 cell proliferation assay (CellTiter-Glo); assay type: cell-based; details: Homo sapiens, K562 cell viability, 72 hours, read-out: Cell Line (IC50, nM) K562
property label: IC50 (nM)
Please state the figure in nM; there is no need to write the unit.

# compound, property label, number
rows = [
    ("COc1ccnc(OC)c1-c1cc2cc(NC(=O)[C@@H]3C[C@H]3CN3CCN(C)CC3)ncc2n1C (single isomer, unassigned)", "IC50", 99.1),
    ("COc1ncccc1-c1c(C)c2cc(NC(=O)[C@@H]3C[C@@H]3F)ncc2n1C", "IC50", 576),
    ("COc1ncnc(OC)c1-c1cc2cc(NC(=O)[C@@H]3CC3(F)F)ncc2n1C", "IC50", 98.8),
]

## Task Item COc1nc(N)nc(OC)c1-c1cc2cc(NC(=O)[C@@H]3C[C@@H]3F)ncc2n1C has what recorded IC50?
## Result 17.7

====

test system: HL60 cells; test: HL60 cell proliferation assay (CellTiter-Glo); format: cell-based; details: Homo sapiens, HL-60, HL60 cell viability, 72 hours, read-out: Cell Line (IC50, nM) HL60
property label: IC50 (nM)
Numeric answer only, unit nM assumed.

# compound, IC50, nM
records = [
    ("Cn1c(-c2cccc3c2CCN3)cc2cc(NC(=O)[C@@H]3C[C@@H]3F)ncc21 [Compound 31]", 514),
    ("COc1nc(N(C)C)nc(OC)c1-c1cc2cc(NC(=O)[C@@H]3C[C@@H]3F)ncc2n1C [Compound 104]", 240),
]

## Task # get_value(readout='IC50', item= COc1cnnc(OC)c1-c1cc2cc(NC(=O)[C@@H]3C[C@@H]3F)ncc2n1C [Compound 107] )
## Result 2550
